Where do these numbers come from? They come from patent US7786083B2.

Test system: metastin receptors
Method Summary: Measurement of agonist activity by assaying changes in intracellular calcium ion level (FLIPR, Fluo-4 NW)
Format: cell-based, human
Test Settings: specific activity of the EC50 of a test compound based on the EC50 of Metastin (45-54), metastin receptor expression CHO cells
*1 amine or outer side, *2 acyl side, *3 side chain or, on linkers, in order; H or OH if unused. Where a SMILES comes first, the peptide text is derived from it. [ ]: non-standard residue; d: D form. Glyψ(E-CHCH)Leu = CC(C)C[C@H](/C=C/CN[*:1])C(=O)[*:2]; Arg(Me) = CNC(=N)NCCC[C@H](N)C(=O)O; Dap(CONH2) = NC(=O)NC[C@H](N)C(=O)O; Hyp = O=C(O)[C@@H]1C[C@@H](O)CN1; Cha = N[C@@H](CC1CCCCC1)C(=O)O; Abu = CC[C@H](N)C(=O)O
Value Kind: Specific Activity
Just the number, please, no unit attached.

Example cases with answers are listed next.
CC[C@H](NC(=O)[C@H](Cc1ccccc1)NC(=O)[C@@H](NC(=O)[C@H](CC(N)=O)NC(=O)[C@@H]1C[C@@H](O)CN1C(=O)[C@@H](Cc1ccc(O)cc1)NC(C)=O)[C@@H](C)O)C(=O)N[C@@H](CC(C)C)C(=O)N[C@@H](CCCNC(=N)NC)C(=O)N[C@@H](Cc1c[nH]c2ccccc12)C(N)=O [Compound No. 818] (Ac-[dY][Hyp]NTF[Abu]L[Arg(Me)]W-NH2): 1.0
CNC(=N)NCCC[C@H](NC(=O)[C@H](CC(C)C)NC(=O)CNC(=O)[C@H](CC1CCCCC1)NC(=O)[C@@H](NC(=O)[C@H](CC(N)=O)NC(=O)[C@@H]1C[C@@H](O)CN1C(=O)[C@@H](Cc1ccc(O)cc1)NC(C)=O)[C@@H](C)O)C(=O)N[C@@H](Cc1c[nH]c2ccccc12)C(N)=O [Compound No. 822] (Ac-[dY][Hyp]NT[Cha]GL[Arg(Me)]W-NH2): 0.3

Consider now this further molecule.
What Specific Activity value was documented for this molecule, CNC(=N)NCCC[C@H](NC(=O)[C@@H](/C=C/CNC(=O)[C@H](Cc1ccccc1)NC(=O)[C@@H](NC(=O)[C@H](CNC(N)=O)NC(=O)[C@H](CCC(=O)O)NC(=O)[C@@H](Cc1ccc(O)cc1)NC(C)=O)[C@@H](C)O)CC(C)C)C(=O)N[C@@H](Cc1c[nH]c2ccccc12)C(N)=O [Compound No. 908] (Ac-[dY]E[Dap(CONH2)]TF[Glyψ(E-CHCH)Leu][Arg(Me)]W-NH2) ? 0.5
